We begin with a simple list: items and their reported pKd.
target: T1, EsCas13d, nuclease-dead (Eubacterium siraeum, UniProt B0MS50, R295A;H300A;R849A;H854A)
T1 sequence: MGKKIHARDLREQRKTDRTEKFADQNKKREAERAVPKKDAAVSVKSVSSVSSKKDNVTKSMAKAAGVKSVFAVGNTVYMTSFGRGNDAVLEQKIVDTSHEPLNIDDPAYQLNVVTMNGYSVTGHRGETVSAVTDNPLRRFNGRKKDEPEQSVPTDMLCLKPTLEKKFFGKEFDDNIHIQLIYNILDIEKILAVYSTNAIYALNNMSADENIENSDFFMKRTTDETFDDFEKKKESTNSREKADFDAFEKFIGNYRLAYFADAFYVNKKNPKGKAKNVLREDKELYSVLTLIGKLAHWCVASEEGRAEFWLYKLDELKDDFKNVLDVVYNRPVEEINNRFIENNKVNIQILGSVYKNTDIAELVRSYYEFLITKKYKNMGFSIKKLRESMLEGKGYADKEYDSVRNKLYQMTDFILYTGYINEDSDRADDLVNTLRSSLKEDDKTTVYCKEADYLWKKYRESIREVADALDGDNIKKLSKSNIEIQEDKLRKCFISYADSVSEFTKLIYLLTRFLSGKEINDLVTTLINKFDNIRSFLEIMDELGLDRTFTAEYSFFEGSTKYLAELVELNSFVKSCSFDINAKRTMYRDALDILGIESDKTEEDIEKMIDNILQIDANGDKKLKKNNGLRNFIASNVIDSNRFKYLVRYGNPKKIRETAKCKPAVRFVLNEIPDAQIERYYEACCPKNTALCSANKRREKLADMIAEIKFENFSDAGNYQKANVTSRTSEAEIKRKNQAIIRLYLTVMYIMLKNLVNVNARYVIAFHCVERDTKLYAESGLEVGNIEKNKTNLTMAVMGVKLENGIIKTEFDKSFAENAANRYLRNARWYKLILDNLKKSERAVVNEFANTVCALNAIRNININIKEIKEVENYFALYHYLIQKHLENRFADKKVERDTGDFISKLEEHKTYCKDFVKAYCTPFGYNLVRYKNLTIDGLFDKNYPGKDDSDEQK
test.details: crRNA (strand 1, pre-loaded); Mg2+; 40 mM Tris-HCl pH 7.5, 150 mM NaCl, 6 mM MgCl2, 1 mM DTT, 0.1% Tween-20, 0.2 mg/ml BSA; 25 C; 10 min per concentration, then washed
test.parameters: tags: His6-TwinStrep-SUMO cleaved; N-terminal SNAP kept (SNAP-Surface 488); label: 3' end held by stalled T7 RNA polymerase
Just so you know, pKd here is -log10 of the concentration in molar units; reply with that number alone.

binder target 1 MT 5'PFS GUC 3'PFS CGG (mixed) RNA 1: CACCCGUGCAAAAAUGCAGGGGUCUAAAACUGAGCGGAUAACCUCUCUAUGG RNA 2: GGGAAUGGAUCCACAUCUACGAAUUCGUCCCAUAGAGAGGUUAUCCGCUCACGGAGAUCGGAAGAGCACACGU , pKd observed: 7.55

binder target 1 G13U,G15U (mixed) RNA 1: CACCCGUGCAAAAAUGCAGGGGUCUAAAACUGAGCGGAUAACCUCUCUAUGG RNA 2: GGGAAUGGAUCCACAUCUACGAAUUCGUACCAUAGAUAUGUUAUCCGCUCACCGAGAUCGGAAGAGCACACGU , pKd observed: 7.26

binder target 1 insC 3' of 17,insG 3' of 1 (mixed) RNA 1: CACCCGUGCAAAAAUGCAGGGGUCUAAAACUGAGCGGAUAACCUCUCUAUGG RNA 2: GGGAAUGGAUCCACAUCUACGAAUUCGUACCAUAGCAGAGGUUAUCCGCUCAGCCGAGAUCGGAAGAGCACACGU , pKd observed: 7.36

Reference for the values: paper PMC10786891
